- Tested on: Staphylococcus aureus
- assay name: In vitro antibacterial activity of A5177 strain of Gram positive bacteria Staphylococcus aureus
- Format: functional
experimental readout: MIC (µg/mL)

compound structure	assay system	experimental readout	result units	relation operator	data value
CC[C@H]1OC(=O)/C(C)=C/[C@H](C)[C@@H](O[C@@H]2O[C@H](C)C[C@H](N(C)C)[C@H]2O)[C@@](C)(OC)C[C@@H](C)C(=O)[C@H](C)[C@H]2N(NCc3ccccc3O)C(=O)O[C@]12C	Staphylococcus aureus	MIC	µg/mL	=	0.2
CC[C@H]1OC(=O)/C(C)=C/[C@H](C)[C@@H](O[C@@H]2O[C@H](C)C[C@H](N(C)C)[C@H]2O)[C@@](C)(OC)C[C@@H](C)C(=O)[C@H](C)[C@H]2N(NCc3cc(O)ccc3O)C(=O)O[C@]12C	Staphylococcus aureus	MIC	µg/mL	=	3.1
CC[C@H]1OC(=O)/C(C)=C/[C@H](C)[C@@H](O[C@@H]2O[C@H](C)C[C@H](N(C)C)[C@H]2O)[C@@](C)(OC)C[C@@H](C)C(=O)[C@H](C)[C@H]2N(NCc3ccccc3CO)C(=O)O[C@]12C	Staphylococcus aureus	MIC	µg/mL	=	0.2
CC[C@H]1OC(=O)/C(C)=C/[C@H](C)[C@@H](O[C@@H]2O[C@H](C)C[C@H](N(C)C)[C@H]2O)[C@@](C)(OC)C[C@@H](C)C(=O)[C@H](C)[C@H]2N(NC/C=C/c3ccc([N+](=O)[O-])cc3)C(=O)O[C@]12C	Staphylococcus aureus	MIC	µg/mL	=	0.2
CC[C@H]1OC(=O)/C(C)=C/[C@H](C)[C@@H](O[C@@H]2O[C@H](C)C[C@H](N(C)C)[C@H]2O)[C@@](C)(OC)C[C@@H](C)C2=NN3C(=O)O[C@@]1(C)[C@H]3[C@H]2C	Staphylococcus aureus	MIC	µg/mL	>	100
CC[C@H]1OC(=O)/C(C)=C/[C@H](C)[C@@H](O[C@@H]2O[C@H](C)C[C@H](N(C)C)[C@H]2O)[C@@](C)(OC)C[C@@H](C)C(=O)[C@H](C)[C@H]2N(NCCCc3ccc(NC(C)=O)cc3)C(=O)O[C@]12C	Staphylococcus aureus	MIC	µg/mL	=	0.39
CC[C@H]1OC(=O)/C(C)=C/[C@H](C)[C@@H](O[C@@H]2O[C@H](C)C[C@H](N(C)C)[C@H]2O)[C@@](C)(OC)C[C@@H](C)C(=O)[C@H](C)[C@H]2N(NCCCc3ccc([N+](=O)[O-])cc3)C(=O)O[C@]12C	Staphylococcus aureus	MIC	µg/mL	=	0.1
CC[C@H]1OC(=O)/C(C)=C/[C@H](C)[C@@H](O[C@@H]2O[C@H](C)C[C@H](N(C)C)[C@H]2O)[C@@](C)(OC)C[C@@H](C)C(=O)[C@H](C)[C@H]2N(NCCCc3ccc(O)cc3)C(=O)O[C@]12C	Staphylococcus aureus	MIC	µg/mL	=	0.1
CC[C@H]1OC(=O)/C(C)=C/[C@H](C)[C@@H](O[C@@H]2O[C@H](C)C[C@H](N(C)C)[C@H]2O)[C@@](C)(OC)C[C@@H](C)C(=O)[C@H](C)[C@H]2N(NCc3c[nH]c4ccccc34)C(=O)O[C@]12C	Staphylococcus aureus	MIC	µg/mL	=	0.39

---

- Tested on: Streptococcus pneumoniae
- assay name: In vitro antibacterial activity of 5649 strain of Gram positive bacteria Streptococcus pneumoniae
- Assay type: functional
Below is a list of entries, each paired with its recorded MIC value.
experimental readout: MIC (µg/mL)

compound structure	result units	relation operator	data value
CC[C@H]1OC(=O)/C(C)=C/[C@H](C)[C@@H](O[C@@H]2O[C@H](C)C[C@H](N(C)C)[C@H]2O)[C@@](C)(OC)C[C@@H](C)C(=O)[C@H](C)[C@H]2N(NCc3ccccn3)C(=O)O[C@]12C	µg/mL	=	1
CC[C@H]1OC(=O)/C(C)=C/[C@H](C)[C@@H](O[C@@H]2O[C@H](C)C[C@H](N(C)C)[C@H]2O)[C@@](C)(OC)C[C@@H](C)C(=O)[C@H](C)[C@H]2N(NC/C=C/c3cccc4ccccc34)C(=O)O[C@]12C	µg/mL	=	1
CC[C@H]1OC(=O)/C(C)=C/[C@H](C)[C@@H](O[C@@H]2O[C@H](C)C[C@H](N(C)C)[C@H]2O)[C@@](C)(OC)C[C@@H](C)C(=O)[C@H](C)[C@H]2N(NCc3ccc(NC(C)=O)cc3)C(=O)O[C@]12C	µg/mL	=	1
CC[C@H]1OC(=O)/C(C)=C/[C@H](C)[C@@H](O[C@@H]2O[C@H](C)C[C@H](N(C)C)[C@H]2O)[C@@](C)(OC)C[C@@H](C)[C@@H]2NN3C(=O)O[C@@]1(C)[C@H]3[C@H]2C	µg/mL	>	128
CC[C@H]1OC(=O)/C(C)=C/[C@H](C)[C@@H](O[C@@H]2O[C@H](C)C[C@H](N(C)C)[C@H]2O)[C@@](C)(OC)C[C@@H](C)C(=O)[C@H](C)[C@H]2N(NCCCc3ccc(F)cc3)C(=O)O[C@]12C	µg/mL	=	1
CC[C@H]1OC(=O)/C(C)=C/[C@H](C)[C@@H](O[C@@H]2O[C@H](C)C[C@H](N(C)C)[C@H]2O)[C@@](C)(OC)C[C@@H](C)C(=O)[C@H](C)[C@H]2N(NCc3ccc(SC)cc3)C(=O)O[C@]12C	µg/mL	=	0.5
CC[C@H]1OC(=O)/C(C)=C/[C@H](C)[C@@H](O[C@@H]2O[C@H](C)C[C@H](N(C)C)[C@H]2O)[C@@](C)(OC)C[C@@H](C)C(=O)[C@H](C)[C@H]2N(NCc3ccccc3CO)C(=O)O[C@]12C	µg/mL	=	1
CC[C@H]1OC(=O)/C(C)=C/[C@H](C)[C@@H](O[C@@H]2O[C@H](C)C[C@H](N(C)C)[C@H]2O)[C@@](C)(OC)C[C@@H](C)C(=O)[C@H](C)[C@H]2N(NCCCc3ccnc4ccccc34)C(=O)O[C@]12C	µg/mL	=	1
CC[C@H]1OC(=O)/C(C)=C/[C@H](C)[C@@H](O[C@@H]2O[C@H](C)C[C@H](N(C)C)[C@H]2O)[C@@](C)(OC)C[C@@H](C)C(=O)[C@H](C)[C@H]2N(NC/C=C/c3ccc(NC(C)=O)cc3)C(=O)O[C@]12C	µg/mL	=	1
CC[C@H]1OC(=O)/C(C)=C/[C@H](C)[C@@H](O[C@@H]2O[C@H](C)C[C@H](N(C)C)[C@H]2O)[C@@](C)(OC)C[C@@H](C)C(=O)[C@H](C)[C@H]2N(NCc3cc(O)ccc3O)C(=O)O[C@]12C	µg/mL	=	2
CC[C@H]1OC(=O)/C(C)=C/[C@H](C)[C@@H](O[C@@H]2O[C@H](C)C[C@H](N(C)C)[C@H]2O)[C@@](C)(OC)C[C@@H](C)C(=O)[C@H](C)[C@H]2N(NCCCc3ccc([N+](=O)[O-])cc3)C(=O)O[C@]12C	µg/mL	=	1
CC[C@H]1OC(=O)/C(C)=C/[C@H](C)[C@@H](O[C@@H]2O[C@H](C)C[C@H](N(C)C)[C@H]2O)[C@@](C)(OC)C[C@@H](C)C(=O)[C@H](C)[C@H]2N(NCCCc3ccc(N)cc3)C(=O)O[C@]12C	µg/mL	=	1
CC[C@H]1OC(=O)/C(C)=C/[C@H](C)[C@@H](O[C@@H]2O[C@H](C)C[C@H](N(C)C)[C@H]2O)[C@@](C)(OC)C[C@@H](C)C(=O)[C@H](C)[C@H]2N(NCc3ccc(OC)cc3)C(=O)O[C@]12C	µg/mL	=	2
CC[C@H]1OC(=O)/C(C)=C/[C@H](C)[C@@H](O[C@@H]2O[C@H](C)C[C@H](N(C)C)[C@H]2O)[C@@](C)(OC)C[C@@H](C)C(=O)[C@H](C)[C@H]2N(NCCCc3ccccc3O)C(=O)O[C@]12C	µg/mL	=	2

---

- Tested on: Streptococcus pneumoniae
- assay name: In vitro antibacterial activity of 5979 strain of Gram positive bacteria Streptococcus pneumoniae
- Format: functional
The compounds listed here are annotated with their MIC.

compound structure	assay system	MIC
CC[C@H]1OC(=O)/C(C)=C/[C@H](C)[C@@H](O[C@@H]2O[C@H](C)C[C@H](N(C)C)[C@H]2O)[C@@](C)(OC)C[C@@H](C)C(=O)[C@H](C)[C@H]2N(NCCCc3ccc([N+](=O)[O-])cc3)C(=O)O[C@]12C	Streptococcus pneumoniae	64 µg/mL
CC[C@H]1OC(=O)/C(C)=C/[C@H](C)[C@@H](O[C@@H]2O[C@H](C)C[C@H](N(C)C)[C@H]2O)[C@@](C)(OC)C[C@@H](C)C(=O)[C@H](C)[C@H]2N(NCc3ccc(N)cc3)C(=O)O[C@]12C	Streptococcus pneumoniae	> 128 µg/mL
CC[C@H]1OC(=O)/C(C)=C/[C@H](C)[C@@H](O[C@@H]2O[C@H](C)C[C@H](N(C)C)[C@H]2O)[C@@](C)(OC)C[C@@H](C)C(=O)[C@H](C)[C@H]2N(NCc3ccc(SC)cc3)C(=O)O[C@]12C	Streptococcus pneumoniae	64 µg/mL
CC[C@H]1OC(=O)/C(C)=C/[C@H](C)[C@@H](O[C@@H]2O[C@H](C)C[C@H](N(C)C)[C@H]2O)[C@@](C)(OC)C[C@@H](C)[C@@H]2NN3C(=O)O[C@@]1(C)[C@H]3[C@H]2C	Streptococcus pneumoniae	> 128 µg/mL
CC[C@H]1OC(=O)/C(C)=C/[C@H](C)[C@@H](O[C@@H]2O[C@H](C)C[C@H](N(C)C)[C@H]2O)[C@@](C)(OC)C[C@@H](C)C(=O)[C@H](C)[C@H]2N(NCCCc3ccccc3[N+](=O)[O-])C(=O)O[C@]12C	Streptococcus pneumoniae	128 µg/mL
